Species on record: Homo sapiens
Test: Selectivity index, ratio of IC50 for 20S proteasome beta 5c (unknown origin) to IC50 for 20S proteasome beta 5i (unknown origin)
EXPERIMENTAL ENDPOINT: Ratio IC50

Some solved cases for reference:
CHEMICAL SMILES: Cc1ccc(S(=O)(=O)N[C@@H](CC(=O)NC(C)(C)C)C(=O)NCCNC(=O)c2cc(-c3ccccc3F)ccc2F)cc1
MEASURED VALUE: 28

CHEMICAL SMILES: Cc1ccc(S(=O)(=O)N[C@@H](CC(=O)NC(C)(C)C)C(=O)N[C@@H](C)CC(=O)NCc2cccc3ccccc23)cc1
MEASURED VALUE: 13600

CHEMICAL SMILES: COc1ccc(C[C@H](NC(=O)[C@@H](C)NC(=O)[C@H]2CC[C@H](O)CC2)C(=O)N[C@@H](CC2=CCCC2)C(=O)[C@@]2(C)CO2)cc1
MEASURED VALUE: 79

CHEMICAL SMILES: C[C@@H](CC(=O)NCc1cccc2ccccc12)NC(=O)[C@H](CC(=O)NC(C)(C)C)NC(=O)CCc1ccccc1
MEASURED VALUE: 1330

(a) CC(C)(C)NC(=O)C[C@H](NS(=O)(=O)C1CC1)C(=O)NCCNC(=O)c1cc(-c2ccccc2F)ccc1F
(b) Cc1ccc(S(=O)(=O)N[C@H](CC(=O)N[C@@H](C)C(=O)NCc2cccc3ccccc23)CC(=O)NC(C)(C)C)cc1
Input: Higher Ratio IC50 between a and b ? Answer with the label corresponding to your selection.
Output: b
(b: 5600, a: 64)

(I) CC(C)C[C@H](NC(=O)CN1CCCCCC1)C(=O)N[C@@H](Cc1ccccc1)C(=O)N[C@@H](Cc1ccccc1)C(=O)[C@@]1(C)CO1
(II) COc1ccc([C@@H](O)[C@H](NC(=O)[C@H](C)NC(=O)CN2CCOCC2)C(=O)N[C@@H](CC2=CCCC2)C(=O)[C@@]2(C)CO2)cc1
Input: Higher Ratio IC50 between I and II ? Answer with the label corresponding to your selection.
Output: II

* * *

Molecular target: Proteasome subunit beta type-9 (Homo sapiens, UniProt P28065)
Sequence (P28065 whole entry): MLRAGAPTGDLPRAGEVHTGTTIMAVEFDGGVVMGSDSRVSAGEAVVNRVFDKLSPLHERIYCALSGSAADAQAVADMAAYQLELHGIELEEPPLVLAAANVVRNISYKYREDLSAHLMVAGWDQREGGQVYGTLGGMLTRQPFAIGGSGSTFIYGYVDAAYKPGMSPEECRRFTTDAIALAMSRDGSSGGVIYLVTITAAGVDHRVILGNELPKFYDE
Test: Inhibition of 20S proteasome beta 1i (unknown origin) after 1 hr by fluorescence based assay
EXPERIMENTAL ENDPOINT: IC50

Input: Which IC50 reading was recorded for the compound CC(C)C[C@H](NC(=O)[C@@H](NC(=O)c1cccc(-c2ccccc2)n1)[C@@H](C)O)B(O)O ?
Output: 1 to 3 nM

* * *

Species: Homo sapiens
Assay: Selectivity index, ratio of IC50 for human 20S proteasome beta 5c to IC50 for human 20S proteasome beta 5i
EXPERIMENTAL ENDPOINT: Ratio IC50

CHEMICAL SMILES: Cc1c(C2CCCC2)c(=O)oc2cc3occ(-c4ccccc4)c3cc12
MEASURED VALUE: 83

(I) Cc1c(CCC(=O)O)c(=O)oc2cc3occ(-c4ccccc4)c3cc12
(II) Cc1c(CCC(=O)ON2C(=O)CCC2=O)c(=O)oc2cc3occ(-c4ccccc4)c3cc12
Input: Higher Ratio IC50 between I and II ? Answer with the label corresponding to your selection.
Output: I
(I: 108, II: 24)

* * *

Target: Proteasome subunit beta type-8 (Homo sapiens, UniProt P28062)
Sequence (P28062 whole entry): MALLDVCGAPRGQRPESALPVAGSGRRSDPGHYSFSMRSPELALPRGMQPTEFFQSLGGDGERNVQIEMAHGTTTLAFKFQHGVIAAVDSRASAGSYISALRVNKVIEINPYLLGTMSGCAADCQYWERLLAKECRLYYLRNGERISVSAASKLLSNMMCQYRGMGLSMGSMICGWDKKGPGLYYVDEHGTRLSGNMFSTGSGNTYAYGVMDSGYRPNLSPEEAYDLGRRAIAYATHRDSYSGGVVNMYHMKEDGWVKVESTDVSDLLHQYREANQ
Assay: Inhibition of 20S proteasome beta 5i (unknown origin) after 1 hr by cell based assay
EXPERIMENTAL ENDPOINT: IC50 (nM)

(P) Cc1ccc(S(=O)(=O)N[C@@H](CC(=O)NC(C)(C)C)C(=O)N[C@@H](C)CC(=O)NCc2cccc3ccccc23)cc1
(Q) C[C@@H](CC(=O)NCc1cccc2ccccc12)NC(=O)[C@H](CC(=O)NC(C)(C)C)NC(=O)CCc1ccccc1
(R) Cc1ccc(S(=O)(=O)N[C@H](CC(=O)N[C@@H](C)C(=O)NCc2cccc3ccccc23)CC(=O)NC(C)(C)C)cc1
Input: // sort listed items: IC50 descending Show the ranking through the labels, in the order asked for.
Output: Q, R, P

The reported measurements were obtained from ChEMBL document CHEMBL4402529.
